test: S. cerevisiae growth modulation with rapamycin, primary screen, strain BY4716, OD600, 96 h (AID 1091); conditions: higher = more signal, called active from +8 up or from −8 down; also: test concentration not given here
The following compounds are listed with their measured z-score values.
readout.kind: z-score

compound	numeric.value
CSCC[C@@H]1NC(=O)CC=C[C@@H](C)COC(=O)[C@H](CCSC)NC(=O)CC=C[C@@H](C)COC1=O	-1.03
CCOC(=O)C1=C[C@@H](c2ccccc2)N(S(=O)(=O)c2ccc(C)cc2)[C@H]1c1ccc(F)cc1	2.39
C=CC[C@]1(C(=O)NCC(O)CO)N=C(c2ccc(OCCCO)cc2)O[C@H]1c1ccccc1 (stereo partly specified)	-1.18
COc1ccc([Si](C)(C)[C@@H]2[C@@H](CC(=O)N(CCO)Cc3ccccc3)O[C@]3(C(=O)N(Cc4cccc(N5CCC5=O)c4)c4ccccc43)[C@H]2C)cc1	1.61
C=C(CCCC)/C(=C/C[C@@H](OC(=O)c1ccncc1)c1ccc(CO)o1)c1cnc2ccccc2c1	0.322
C=CCNC(=O)[C@@H]1[C@H]2C(=O)O[C@H](c3ccccc3)[C@H](c3ccccc3)N2[C@H](c2ccc(OCCO)cc2)[C@@]12C(=O)N(C(=O)OCCOC)c1ccc(C#CC3(O)CCCCCC3)cc12	3.24
CC(C)=C1C(=O)C(c2ccccc2)=C2CN3C(=O)N(CCc4ccccc4)C(=O)[C@]3(Cc3ccccc3)[C@H]21	0.867
COCCOC(=O)N1C(=O)[C@@]2(c3cc(C#CCNC(N)=O)ccc31)[C@H](C(=O)N1CCCCCCC1)[C@H]1C(=O)O[C@H](c3ccccc3)[C@H](c3ccccc3)N1[C@@H]2c1ccccc1OCCO	3.58
C=CCOC(=O)[C@@H]1[C@H]2C(=O)O[C@H](c3ccccc3)[C@H](c3ccccc3)N2[C@H](c2ccc(OCCOC(=O)[C@H]3C[C@H]4C(=O)N[C@@H](CCCCNC(C)=O)C(=O)N4[C@H]3c3ccc(O)cc3)cc2)[C@@]12C(=O)Nc1ccc(I)cc12	4.48
Cc1ccc(N2C(=O)c3ccccc3[C@](C)(C(=O)NCC(C)C)[C@@H]2c2ccc(CO)cc2)nc1	1.43
Cc1ccc(S(=O)(=O)c2cc3oc2CC[C@@H](CO)NC(=O)N(C)Cc2cn(nn2)C[C@H](Cc2ccccc2)NC3=O)cc1	0.0417
